Entry source: patent US11213538B2

- TARGET OF ASSAY: FOXP3 (Homo sapiens, UniProt Q9BZS1)
- Construct: expressed in transfected cells
- Sequence (Q9BZS1 whole entry, species assumed): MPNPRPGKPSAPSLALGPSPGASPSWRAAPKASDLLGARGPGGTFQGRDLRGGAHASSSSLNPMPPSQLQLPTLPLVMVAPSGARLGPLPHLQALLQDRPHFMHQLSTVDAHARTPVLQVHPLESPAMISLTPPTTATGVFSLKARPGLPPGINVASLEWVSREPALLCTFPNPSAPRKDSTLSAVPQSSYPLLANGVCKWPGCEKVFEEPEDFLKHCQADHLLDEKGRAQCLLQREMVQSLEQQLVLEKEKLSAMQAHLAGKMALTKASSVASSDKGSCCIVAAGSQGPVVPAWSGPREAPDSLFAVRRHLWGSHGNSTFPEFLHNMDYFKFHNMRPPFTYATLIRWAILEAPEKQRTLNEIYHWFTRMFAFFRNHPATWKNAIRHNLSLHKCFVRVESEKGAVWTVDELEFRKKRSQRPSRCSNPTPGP
- RUN DESCRIPTION: FOXP3 function inhibitory activity, NF-κB luciferase reporter in HEK293/NF-κB-RE/FOXP3 cells with TNF-alpha
- Format: cell-based
- TEST PARAMETERS: test drug concentration 0.3 (μM); DMSO control = 1.0
ASSAY READOUT: Chemiluminescence intensity ratio (HEK293/NF-κB-RE/FOXP3 cells / HEK293/NF-κB-RE cells)

molecule="COc1cccc2c1C(=O)c1c(O)c3c(c(O)c1C2=O)C[C@@](O)(C(=O)CO)C[C@@H]3O[C@H]1C[C@H](N)[C@H](O)[C@H](C)O1 [Doxorubicin, doxorubicin]" endpoint_result=1.29
molecule="COc1cccc2c1C(=O)c1c(O)c3c(c(O)c1C2=O)C[C@@](O)(C(=O)CO)C[C@@H]3O[C@H]1C[C@H](N)[C@@H](O)[C@H](C)O1 [Epirubicin, epirubicin]" endpoint_result=1.62
molecule="COc1cccc2c1C(=O)c1c(O)c3c(c(O)c1C2=O)C[C@@](O)(C(=O)CO)C[C@@H]3O[C@H]1C[C@H](N)[C@H](O[C@@H]2CCCCO2)[C@H](C)O1 [Pirarubicin, pirarubicin]" endpoint_result=1.50
molecule="COc1cccc2c1C(=O)c1c(O)c3c(c(O)c1C2=O)C[C@@](O)(C(C)=O)C[C@@H]3O[C@H]1C[C@H](N)[C@H](O)[C@H](C)O1 [Daunorubicin, daunorubicin]" endpoint_result=2.07
